compounds and their reported growth inhibition
test: NCI Yeast Anticancer Drug Screen. Data for the cln2 rad14 strain (AID 165);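 further: 0% = growth equal to vehicle treated cultures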; conditions: S. cerevisiae cln2 rad14 strain, at 50.0 µM, stronger effect = higher value
Compounds without any hit were thinned out: in the full panel of roughly 79,000, 15% have a hit.
Give the value in % but do not write % after it.

Examples with their reported growth inhibition follow.
compound: O=c1/c(=C/c2ccc(Cl)cc2)sc2nc(-c3ccccc3)nn12
readout_number: -6.75
//
compound: O=C(CC1=NC2NN(c3ccccc3)C(=O)C2=C1CC(=O)c1ccc([N+](=O)[O-])cc1)c1ccc([N+](=O)[O-])cc1 (configuration not stated)
readout_number: 2.7
//
compound: C/C(=C/C(=O)Nc1ccc2ccccc2c1)Nc1ccc2ccccc2c1
readout_number: -8.95
//
compound: N#CC1(c2nc3ccccc3o2)C(=O)C(=O)N(C2C3CC4CC(C3)CC2C4)C(=O)C1=O (configuration not stated)
readout_number: 16.2
//
compound: Cc1ccc(OC(=O)c2ccc([N+](=O)[O-])cc2)cc1C(C)C
readout_number: -6.45

Reported growth inhibition of CC(/C=N\NC(=S)SCc1ccccc1)=N/N=C(N)N : -3.7

Reported growth inhibition of Nc1ccc(I)cn1 : -11.7

Reported growth inhibition of O=C(O)c1ccc(C(=O)O)c(C(=O)O)c1.[NH-]C1CCCCC1[NH-].[Pd+2] : 10.6

Reported growth inhibition of COC(=O)/C(=N/NC(N)=O)C(C(=O)OC)C(=O)C(=O)Nc1ccc(Cl)cc1 (configuration not stated) : 13.8

Reported growth inhibition of CC(=O)Oc1ccc(OC(C)=O)c2cc3c(cc12)C(=O)C(C)=C(C)C3=O : -7.05

Reported growth inhibition of C/C(CC(C)C)=N\NC(=O)Nc1ccccc1Cl : -3.85

Reported growth inhibition of CCOC(=O)c1c(C)[nH]c(=S)c(C#N)c1-c1ccco1 : 4.4

Reported growth inhibition of COc1ccc(S(=O)(=O)/N=C(/C2CC3=CCC4C5CCC(=O)C5(C)CC(=O)C4C3(C)C2)N2CCCC2)cc1 (configuration not stated) : -11.6

Reported growth inhibition of CN(C)/C=C/c1nnnn1-c1ccc(I)cc1 : 7.45

Reported growth inhibition of NCCCC(NC(=O)CCCCCCCCN=C(N)N)C(O)CCCCCCCCN=C(N)N (configuration not stated) : -6.8

Reported growth inhibition of CN(C)c1ccc(N=O)c(O)c1 : 13.6

Reported growth inhibition of N#CNC1=C(C#N)C(c2ccccc2)CC(=O)N1 (configuration not stated) : 0

Reported growth inhibition of O=CNCCN(C=O)CCO : 1.85

Reported growth inhibition of N#Cc1cccc(/C=C\C(=O)c2ccccc2)c1 : 17.3

Reported growth inhibition of CN(C)c1ccc(C=C2C(=O)OC(C)(C)OC2=O)cc1Br : 32

Reported growth inhibition of COc1ccc(NC(=O)CC(=O)NN)cc1 : -1.5

Reported growth inhibition of CCC(C)NC(=O)/C=C/C(=O)NC(C)CC (configuration not stated) : -29.7

Reported growth inhibition of CCCCCCCC(=O)N1CCCC(C)C1 (configuration not stated) : -5.75

Reported growth inhibition of CCC(=O)Oc1cccc2ccccc12 : -14.3

Reported growth inhibition of O=c1[nH]nnc2ccccc12 : 4.55

----------
assay: NCI Yeast Anticancer Drug Screen. Data for the mec2-1 strain (AID 157); conditions: S. cerevisiae mec2-1 strain, at 50.0 µM, stronger effect = higher value
Compounds without any hit were thinned out: in the full panel of roughly 79,000, 15% have a hit.
compounds and their reported growth inhibition
Give the value in % but do not write % after it.

compound: CCCCN(CCCC)CCC(O)c1cc(-c2ccc(C(F)(F)F)cc2)nc(-c2ccc(C(F)(F)F)cc2)c1 (stereo not given)
readout_number: -4.9
//
compound: O=C(O)c1cnc2cc3c(cc2c1Nc1cccc(C(F)(F)F)c1)OCO3
readout_number: -8.85
//
compound: Cc1cc(Cl)c(Cl)cc1N
readout_number: -7.2
//
compound: COc1ccc(NC(=O)Nc2ccc(Cl)cc2C)cc1
readout_number: -2.8

Then there is this compound:
Reported growth inhibition of Oc1ccc2cccc(O)c2c1 : -33.6
